Record form. Attribute: pIC50. Fill in for each entry.
# test_system: UniProt P23458
# Sequence (P23458 875-1153): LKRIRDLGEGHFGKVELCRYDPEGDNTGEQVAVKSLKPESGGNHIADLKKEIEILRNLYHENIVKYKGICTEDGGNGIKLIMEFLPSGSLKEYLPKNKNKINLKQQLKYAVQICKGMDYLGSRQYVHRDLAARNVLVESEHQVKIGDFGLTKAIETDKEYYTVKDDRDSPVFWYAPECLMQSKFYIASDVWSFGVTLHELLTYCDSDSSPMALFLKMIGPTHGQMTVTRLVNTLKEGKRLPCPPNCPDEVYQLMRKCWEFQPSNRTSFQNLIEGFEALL
# method_summary: Jak biochemical HTRF assay, JAK1
# condition_summary: recombinant purified GST-tagged catalytic domain; HTRF format; [ATP] 31.8 μM
Interpret pIC50 as the negative base-10 log of the concentration measured in mol/L.

Problem: Given N#C[C@@H]1CCOC[C@H]1n1cc(C(N)=O)c(Nc2ccc(Cl)c(F)c2)n1 (single isomer, unassigned) [Example 9-13] , state its recorded pIC50.
Result: 9.70

Problem: Quick one: pIC50 of N#C[C@@H]1CN(Cc2cccnn2)CC[C@H]1n1cc(C(N)=O)c(Nc2ccc(F)cc2)n1 (racemic) [Example 6-22] ?
Result: 7.72

Problem: Requested field: pIC50. Item: CC(C)(C)OC(=O)N1CC[C@H](n2cc(C(N)=O)c(Nc3ccccc3)n2)[C@H](C#N)C1 (mixture of isomers) [Example 1-1]
Result: 6.97
